For each of the molecules below, state its pEC50.
System: primary human T-cells
TEST_PROTOCOL: Proliferation assay after 5 days (CellTiter-Glo, CD3 stimulation; PBS counter screen)
Type: cell-based
EXPERIMENTAL_SETUP: Homo sapiens, T-cell, 120 h, primary human T-cells, CD3 stimulation, CellTiter-Glo after 5 days; EC50 of fitted sigmoidal curve; read-out: Tcell Proliferation CD3 EC50
A value of pEC50 is the negative decimal logarithm of a concentration given in moles per litre.

Lookup: Would you kindly share the measured pEC50 for N[C@H]1CS(=O)(=O)c2ccc(-c3nnc(C4(N)CCCCC4)o3)cc2N(Cc2ccc(OC(F)(F)F)cc2)C1=O ?
Found: 6.47

Lookup: Would you kindly share the measured pEC50 for N[C@H]1CS(=O)(=O)c2ccc(-c3nnc(C4CCCC(F)(F)C4)o3)cc2N(Cc2ccc(Cl)cc2)C1=O (stereo partly shown) ?
Found: 6.26

Lookup: Would you kindly share the measured pEC50 for CCn1nnc(-c2cc3c(cc2F)S(=O)(=O)C[C@H](N)C(=O)N3Cc2ccc(Cl)cc2)n1 ?
Found: 5.56

----------
System: primary human T-cells
TEST_PROTOCOL: Proliferation assay after 5 days (CellTiter-Glo, CD3 stimulation; PBS counter screen)
Format: cell-based
EXPERIMENTAL_SETUP: Homo sapiens, T-cell, 120 h, primary human T-cells, CD3 stimulation, CellTiter-Glo after 5 days; EC50 of fitted sigmoidal curve; read-out: Tcell Proliferation CD3 EC50
For each of the compounds below, state its EC50.
Express it in nM; write the number only.

Lookup: Query EC50 on primary human T-cells for CNCC(=O)N[C@H]1CS(=O)(=O)c2cc(F)c(-c3nnc(C(C)(C)C)o3)cc2N(Cc2ccc(Cl)cc2)C1=O
Found: 884

Lookup: Query EC50 on primary human T-cells for CC(C)(C)c1cnn(-c2cc3c(cc2F)S(=O)(=O)C[C@H](N)C(=O)N3Cc2ccc(Cl)cc2)c1
Found: 5490

Lookup: Query EC50 on primary human T-cells for CC(C)(C)c1nnc(-c2cc3c(cc2F)S(=O)(=O)C[C@H](N)C(=O)N3Cc2ccc(OC(F)(F)C(F)F)cc2)o1
Found: 57.6

Lookup: Query EC50 on primary human T-cells for CC(C)(C#N)c1nc(-c2cc3c(cc2F)S(=O)(=O)C[C@H](N)C(=O)N3Cc2ccc(Cl)cc2)no1
Found: 250

Lookup: Query EC50 on primary human T-cells for CC(C)(C)c1nnc(-c2ccc3c(c2)N(Cc2ccc(OC4CCOCC4)cc2)C(=O)[C@@H](N)CS3(=O)=O)o1
Found: 940

Lookup: Query EC50 on primary human T-cells for CC(C)(CO)c1nc(-c2cc3c(cc2F)S(=O)(=O)C[C@H](N)C(=O)N3Cc2ccc(Cl)cc2)no1
Found: 605

Lookup: Query EC50 on primary human T-cells for CNC(=O)N1CCC(C)(c2nc(-c3cc4c(cc3F)S(=O)(=O)C[C@H](N)C(=O)N4Cc3ccc(Cl)cc3)no2)CC1
Found: 7490

Lookup: Query EC50 on primary human T-cells for CC(C)(C)c1nnc(-c2ccc3c(c2)N(Cc2ccc(OCC4CCOCC4)cc2)C(=O)[C@@H](N)CS3(=O)=O)o1
Found: 4790

Lookup: Query EC50 on primary human T-cells for Cc1ccc(-c2nnc(-c3cc4c(cc3F)S(=O)(=O)C[C@H](N)C(=O)N4Cc3ccc(Cl)cc3)o2)nc1
Found: 1420

Lookup: Query EC50 on primary human T-cells for N[C@H]1CS(=O)(=O)c2cc(F)c(-c3noc(N4CCOC(F)(F)C4)n3)cc2N(Cc2ccc(Cl)cc2)C1=O
Found: 34.8

Lookup: Query EC50 on primary human T-cells for CC(C)(F)c1nnc(-c2cc3c(cc2F)S(=O)(=O)C[C@H](N)C(=O)N3Cc2ccc(Cl)cc2)o1
Found: 214

Lookup: Query EC50 on primary human T-cells for COC(=O)N1CC2CC(c3nnc(-c4ccc5c(c4)N(Cc4ccc(OC(F)(F)C(F)F)cc4)C(=O)[C@@H](N)CS5(=O)=O)o3)(C2)C1
Found: 3850

Lookup: Query EC50 on primary human T-cells for N[C@H]1CS(=O)(=O)c2cc(F)c(-c3nnc(C4CCC(F)(F)C4)o3)cc2N(Cc2ccc(Cl)cc2)C1=O (some centres unmarked)
Found: 35.1

Reference source for all entries: patent US20240368150A1
